Molecular target: Sphingosine 1-phosphate receptor 1 (Homo sapiens)
Sequence (P21453 whole entry): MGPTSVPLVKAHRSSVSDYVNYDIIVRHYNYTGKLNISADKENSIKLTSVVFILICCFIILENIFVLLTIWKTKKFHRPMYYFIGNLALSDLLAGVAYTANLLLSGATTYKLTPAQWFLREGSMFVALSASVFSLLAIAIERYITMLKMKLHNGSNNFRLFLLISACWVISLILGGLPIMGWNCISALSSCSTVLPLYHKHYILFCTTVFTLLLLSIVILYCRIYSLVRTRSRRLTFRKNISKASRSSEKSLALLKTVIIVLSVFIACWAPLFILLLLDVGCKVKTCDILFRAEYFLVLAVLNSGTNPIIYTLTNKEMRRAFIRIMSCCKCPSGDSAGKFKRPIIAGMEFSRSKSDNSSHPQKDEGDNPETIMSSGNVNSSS
Assay: Displacement of [33P]S1P from human S1P1 receptor expressed in HEK293T cells after 1 hr by liquid scintillation counting analysis
valueType: pIC50
Give bare numbers, as −log10 of the molar value.

In the examples that follow, each entry is paired with its recorded pIC50.
{"querySmiles": "CCCCCCCCOc1ccc(NC(=O)[C@@](C)(N)/C=C/C(=O)O)cc1", "pIC50": 7.13}
{"querySmiles": "CCCCCCCCOc1ccc(NC(=O)[C@@H](N)CCC(=O)O)cc1", "pIC50": 7.04}
{"querySmiles": "CCCCCCCCOc1ccc(NC(=O)[C@@H](N)CC(=O)O)cc1", "pIC50": 7.84}

Proceeding to the next molecule to report its pIC50.
Request: For Sphingosine 1-phosphate receptor 1 (Homo sapiens), give pIC50 of the listed molecule: O=C(O)CCc1nc(-c2ccc(OCc3ccc(-c4ccccc4)cc3)c(C(F)(F)F)c2)c[nH]1
Response: 5.52

Just for reference, ChEMBL document CHEMBL2311443 is where these values come from.
